- subjectOfTest: T1, cynomolgus monkey HVEM (cynomolgus monkey, UniProt A0A2K5W0R1 39-203)
- T1 sequence: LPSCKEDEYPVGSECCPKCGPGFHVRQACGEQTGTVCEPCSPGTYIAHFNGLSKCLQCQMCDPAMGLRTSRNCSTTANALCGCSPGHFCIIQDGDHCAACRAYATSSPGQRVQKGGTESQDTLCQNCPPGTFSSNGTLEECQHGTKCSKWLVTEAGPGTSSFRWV
- assaySummary: ELISA; further: test concentration or dose not given here
As shown below, each of these binders has a reported ELISA signal value.
Please reply with the value in numeric form only.

INSERT INTO results (binder, assayvalue) VALUES
  ('Ab_023 (H5S14-27A23A) (antibody, V domains shown, also called Ab_23) VH: EVKLDETGGGLVQPGRPMKLSCVASGFTFSDYWMNWVRQSPEKGLEWVAQIRNKPYNYETYYSDSVKGRFTISRDDSKSSVYLQMNNLRAEDMGIYYCTWGNYWGQGTTLTVSS VL: DIKMTQSPSSMYASLGERVTITCKASQDINSYLSWFQQKPGKSPKTLIYRANRLVDGVPSRFSGSGSGQDYSLTISSLEYEDMGIYYCLQYDEFPWTFGGGTKLEIK', 0.057);

We now examine a further binder.
Tell me the measured ELISA signal of Ab_016 (H5S14-17A15A) (antibody, V domains shown, also called Ab_16) VH: QVQLQQSGAELVRPGTSVKMSCKAAGYTFTNYWIGWVKQRPGHGLEWIGDIYPGGGYTNYNEKFKGKATLTADTSSSTAYMQLSSLTSEDSAIYYCARNGNSLDYWGQGTTLTVSS VL: SIVMTQTPKFLLVSAGDRVTITCKASQSVSNDVAWYQQKPGQSPKLLIYYESNRYTGVPDRFTGSGYGTDFTFTISTVQAEDLAVYFCQQDYSSPWTFGGGTKLEIK , please. 0.061
